Measured TGI, listed per entry for reference.
# Tested on: SF-295 CNS
# assay_text: NCI tumour cell line growth inhibition, 48 h

compound	measured_target	lt_gt_eq	TGI / µM
COc1ccc(NC(=O)c2sc3nc(C)c(C(O)c4ccc(OC)cc4)cc3c2N)cc1 (stereo not given)	SF-295 CNS	=	9.79
COc1cc2c(cc1OC)C1C(O)C(OC)C=C3CC[N+](C)(C2)C31 (stereo not given)	SF-295 CNS	>	100
CCN(CC)CCCCCOc1cc(O)c2c(=O)cc(-c3ccccc3)oc2c1	SF-295 CNS	=	5.69
O=C1C(Cl)C(c2ccc(Cl)cc2)N1n1cnc2ccccc2c1=O (stereo not given)	SF-295 CNS	>	100
CC(C)(C)C1CCC2(CC1)CCN(CCCN1CCOCC1)CC2	SF-295 CNS	>	61.7
